Experiment: Compound toxicity assay: 3H-leucine incorporation (translational activity) in HeLa cells
Type: cell-based
Settings: human, reduction of leucine incorporation, first value, read-out: CYTOTOXICITY 3H-LEU ASSAY IC50
Provide the recorded CC50 at 24 h for the entries that follow.
Kindly provide the numeric value in µg/mL only, without the unit symbol.

stdin: Need CC50 at 24 h of CC(=O)Oc1c(C(OC(C)=O)OC(C)=O)c(=O)n(Cc2ccccc2)c2ccccc12 , thanks.
stdout: 32

stdin: Here is the next molecule: CC(=O)Oc1c(C(OC(C)=O)OC(C)=O)c(=O)n(Cc2ccccc2)c2ccc(OCc3ccccc3)cc12
stdout: 29

stdin: Now the same for CC(=O)Oc1c(C(OC(C)=O)OC(C)=O)c(=O)n(-c2ccccc2)c2ccccc12
stdout: 20

stdin: Try this molecule too: COc1c(C(OC(C)=O)OC(C)=O)c(=O)n(Cc2ccccc2)c2ccc(C)cc12
stdout: 2.7

stdin: Quick one: CCCCCCn1c(=O)c(C(OC)OC)c(OC)c2cc(C)ccc21
stdout: 30

stdin: Repeat with CCCCCCn1c(=O)c(C(OC(C)=O)OC(C)=O)c(OC)c2ccccc21
stdout: 6

stdin: Try this molecule too: CCCCCCn1c(=O)c(C(OC(C)=O)OC(C)=O)c(OC(C)=O)c2cc(C)ccc21
stdout: 32

stdin: Moving on to the next molecule: CC(=O)Oc1c(C(OC(C)=O)OC(C)=O)c(=O)n(Cc2ccccc2)c2ccc(C)cc12
stdout: 18

* * *

Assay: Compound toxicity assay: 3H-leucine incorporation (translational activity) in HeLa cells
Type: cell-based
Details: human, reduction of leucine incorporation, *Repeat, read-out: CYTOTOXICITY 3H-LEU ASSAY IC50
READOUT_KIND: CC50 at 24 h (µg/mL)
Please reply with the bare figure in µg/mL and do not write the unit itself.

stdin: Sample CC(=O)Oc1c(C(OC(C)=O)OC(C)=O)c(=O)n(Cc2ccccc2)c2ccc(OCc3ccccc3)cc12 — what was its CC50 at 24 h?
stdout: 40

stdin: # iterate: CC(=O)Oc1ccc2c(c1)c(OC(C)=O)c(C(OC(C)=O)OC(C)=O)c(=O)n2Cc1ccccc1
stdout: 3

stdin: Also CC(=O)Oc1c(C(OC(C)=O)OC(C)=O)c(=O)n(-c2ccccc2)c2ccccc12 ?
stdout: 18

stdin: Next: CC(=O)Oc1c(C(OC(C)=O)OC(C)=O)c(=O)n(Cc2ccccc2)c2ccccc12
stdout: 37

stdin: Now the same for CCCCCCCn1c(=O)c(C(OC(C)=O)OC(C)=O)c(OC(C)=O)c2ccccc21
stdout: 43

stdin: Also need CC(=O)Oc1c(C(OC(C)=O)OC(C)=O)c(=O)n(C)c2ccccc12 , thanks.
stdout: 25

stdin: Try CCCCCCn1c(=O)c(C(OC(C)=O)OC(C)=O)c(OC(C)=O)c2cc(C)ccc21 next.
stdout: 37

stdin: Field entry: CCC(=O)Oc1c(C(OC(=O)CC)OC(=O)CC)c(=O)n(C)c2ccccc12
stdout: 29

* * *

Give measured CC50 at 24 h for each item. Keep answers brief.
Assay: Compound toxicity assay: 3H-leucine incorporation (translational activity) in HeLa cells
Format: cell-based
Settings: human, reduction of leucine incorporation, first value, read-out: CYTOTOXICITY 3H-LEU ASSAY IC50
Experimental: HeLa cells were treated with inhibitory compound for 24 hours, after which levels of translational activity were assayed. For assay of translational activity, HeLa cultures were grown to 80% confluency in 96 well microtiter plates, treated with appropriate concentrations of compound in 2% EMEM during an overnight incubation at 37° C., then rinsed with HBSS and overlaid with […] of 2% EMEM containing 8 μCi of tritiated leucine (141 Cμ/mMol, Amersham Corp., Arlington Heights Ill.). […]
Express it in µg/mL; write the number only.

stdin: Would you mind telling me what CC50 at 24 h value was observed for CCCCCCCn1c(=O)c(C(OC(C)=O)OC(C)=O)c(OC(C)=O)c2ccccc21 ?
stdout: 25

stdin: Next entry: COc1c(C(OC(C)=O)OC(C)=O)c(=O)n(C)c2ccccc12
stdout: 18

stdin: Next compound up: COc1ccc(OCCCOCn2c(=O)c(C(OC(C)=O)OC(C)=O)c(OC(C)=O)c3ccccc32)c(Cl)c1
stdout: 30

stdin: Would you mind doing CCCCC(=O)Oc1c(C(OC(=O)CCCC)OC(=O)CCCC)c(=O)n(C)c2ccccc12 as well?
stdout: 30

stdin: Lookup CC(=O)Oc1c(C(OC(C)=O)OC(C)=O)c(=O)n(C)c2ccccc12
stdout: 25

stdin: Moving on to the next compound: CC(=O)Oc1ccc2c(c1)c(OC(C)=O)c(C(OC(C)=O)OC(C)=O)c(=O)n2Cc1ccccc1
stdout: 21.5

stdin: One more compound: C=CCOC(=O)Cn1c(=O)c(C(OC(C)=O)OC(C)=O)c(OC(C)=O)c2ccccc21
stdout: 43

stdin: Another compound: CCC(=O)Oc1c(C(OC(=O)CC)OC(=O)CC)c(=O)n(C)c2ccccc12
stdout: 29

stdin: How about CCCCCCn1c(=O)c(C(OC(C)=O)OC(C)=O)c(OC)c2cc(C)ccc21 ?
stdout: 2.5
